Reference source for all entries: patent US20200024322A1

The binders listed here are annotated with their hGLP1R cAMP EC50 ratio.
target: human GLP-1 receptor (GLP-1R) (human, UniProt P43220 24-463); assay: cell-based or functional assay

binder | hGLP1R cAMP EC50 ratio
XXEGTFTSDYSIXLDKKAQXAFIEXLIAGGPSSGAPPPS (D-Tyr1; Aib2; αMeL13; K17 conjugated to (2-[2-(2-Amino-ethoxy)-ethoxy]-acetyl)2-(γ-Glu)-CO-(CH2)16-CO2H; Aib20; αMeY25; C-terminal amide (NH2)) | 0.159
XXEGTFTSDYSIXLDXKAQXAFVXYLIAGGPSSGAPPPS (D-Tyr1; Aib2; αMeL13; Orn16; K17 conjugated to (2-[2-(2-Amino-ethoxy)-ethoxy]-acetyl)2-(γ-Glu)-CO-(CH2)16-CO2H; Aib20; D-Glu24; C-terminal amide (NH2)) | 0.0303
XXEGTFTSDYSIXLDXKAQXDFIEYLIAGGPSSGAPPPS (D-Tyr1; Aib2; αMeL13; Orn16; K17 conjugated to (2-[2-(2-Amino-ethoxy)-ethoxy]-acetyl)2-(γ-Glu)-CO-(CH2)18-CO2H; Aib20; C-terminal amide (NH2)) | 0.319
